B1: ZNF263 (parent)
chain: FAHSSNLLRHQRIHTGERPYKCPE

Variants of: B1
Test Details: protein stability index of a GFP-peptide fusion (GPS, HEK-293T) (PSI 1-6); higher = more stable;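 also: lentivirally expressed fusions sorted by FACS into six bins by GFP to DsRed ratio, PSI derived from sequencing read proportions per bin multiplied by bin number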
Condition: c terminus: a fixed tail appended
Assay Endpoint: protein stability index
# output: bare number, no unit

Please review the following examples before continuing.
> print(dat)
   mutant.name  value.measured
1          L7A            2.83
2          H3E            1.98
3          S5E            2.75
4         R12C            2.54
5         R12V            2.73

## Input Item `F1V` : provide protein stability index
## Output 3.01

## Input Item `N6V` : provide protein stability index
## Output 1.91

## Input Item `R18M` : provide protein stability index
## Output 2.2

## Input Item `E17L` : provide protein stability index
## Output 2.04
